Attribution: BigSolDB 2.1

- CONDITION LABEL: in n-heptane, 318.25 K
READOUT NAME: solubility (mole fraction)

{"SMILES DATA": "c1ccc(OP2(Oc3ccccc3)=NP(Oc3ccccc3)(Oc3ccccc3)=NP(Oc3ccccc3)(Oc3ccccc3)=N2)cc1", "REPORTED MEASUREMENT": 0.0056}

---

- CONDITION LABEL: in acetone, 323.15 K

{"SMILES DATA": "c1ccc(OP2(Oc3ccccc3)=NP(Oc3ccccc3)(Oc3ccccc3)=NP(Oc3ccccc3)(Oc3ccccc3)=N2)cc1", "solubility (mole fraction)": 0.117}

---

- CONDITION LABEL: in acetone, 318.25 K
READOUT NAME: solubility (mole fraction)

{"SMILES DATA": "O=[PH](O)c1ccccc1", "REPORTED MEASUREMENT": 0.186}
